Across several publications, the following Ki results were reported for Adenosine receptor A2a (Rattus norvegicus).
MEASUREMENT KIND: Ki (µM)

INSERT INTO assay_data (compound, target_of_assay, measurement_kind, reported_value) VALUES
  ('C#CC(O)[C@H]1O[C@@H](n2cnc3c(N)ncnc32)[C@H](O)[C@@H]1O (some centres undefined)', 'Adenosine receptor A2a (Rattus norvegicus)', 'Ki', 2.11),
  ('Nc1nc(C#CC(O)c2csc3ccccc23)cn2nc(-c3ccco3)nc12 (centres undefined)', 'Adenosine receptor A2a (Rattus norvegicus)', 'Ki', 0.26),
  ('OC[C@@H]1OC(n2cnc3c2N=CN2C[C@@H](c4ccccc4)N=C32)[C@@H](O)[C@H]1O (some centres undefined)', 'Adenosine receptor A2a (Rattus norvegicus)', 'Ki', 17.5),
  ('Cn1c(=O)c2c(ncn2CCCCCl)n(C)c1=O', 'Adenosine receptor A2a (Rattus norvegicus)', 'Ki', 33.3),
  ('CCCn1c(=O)c2nc[nH]c2n(CCC)c1=O', 'Adenosine receptor A2a (Rattus norvegicus)', 'Ki', 2.6),
  ('Cc1ccccc1CCOc1nc(N)c2ncn(C3O[C@H](CO)[C@@H](O)[C@H]3O)c2n1 (some centres undefined)', 'Adenosine receptor A2a (Rattus norvegicus)', 'Ki', 0.039),
  ('CCCCCCSc1nc(N)c2ncn([C@@H]3O[C@H](CO)[C@@H](O)[C@H]3O)c2n1', 'Adenosine receptor A2a (Rattus norvegicus)', 'Ki', 0.542),
  ('COc1cccc(/C=C/CC(=O)Nc2nc3ccccc3c(=O)s2)c1', 'Adenosine receptor A2a (Rattus norvegicus)', 'Ki', 0.317),
  ('O=C(N[C@H]1C(CO)O[C@@H](n2cnc3c(NC4CCCC4)ncnc32)[C@@H]1O)c1ccccc1 (single isomer, unassigned)', 'Adenosine receptor A2a (Rattus norvegicus)', 'Ki', 2.76);
